B1: glmS ribozyme (parent)
chain: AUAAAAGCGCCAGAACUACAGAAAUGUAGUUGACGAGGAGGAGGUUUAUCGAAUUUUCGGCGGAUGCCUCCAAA

# Variants of: B1
# experimental-details: self-cleavage kobs at 2500 uM GlcN6P; higher = faster cleavage; RNA array
# stated-conditions: with glucosamine-6-phosphate
This sample holds only a part of the variants without activity.
# label = 1.0 if self-cleavage kobs at 2500 uM GlcN6P >= 0.0001 s⁻¹ else 0.0

Here are 3 variants together with their reported answers.
{"mutation-key": "G13U G32A C70A", "discrete-label": 1.0}
{"mutation-key": "U45A U47A", "discrete-label": 1.0}
{"mutation-key": "G41C U56A", "discrete-label": 1.0}

Entry A14G G32C C70U : is its self-cleavage kobs at 2500 uM GlcN6P no less than 0.0001 s⁻¹?
0.0

Record A14U C50A C71A ; criterion: self-cleavage kobs at 2500 uM GlcN6P no lower than 0.0001 s⁻¹. Met?
0.0

Entry G9C A33U A36G U45A A48C : is its self-cleavage kobs at 2500 uM GlcN6P no less than 0.0001 s⁻¹?
0.0

Item G7A A12C A15U G41U with self-cleavage kobs at 2500 uM GlcN6P of 0.0001 s⁻¹ or above?
0.0

Could you tell me if the measured self-cleavage kobs at 2500 uM GlcN6P of U45C A48U G60A reaches 0.0001 s⁻¹ or more?
0.0

# check: self-cleavage kobs at 2500 uM GlcN6P of G9U C10U C67U is greater than or equal to 0.0001 s⁻¹
0.0

State whether the measured self-cleavage kobs at 2500 uM GlcN6P reaches 0.0001 s⁻¹, counting equality as reaching it, for A12G A14C
0.0

Could you tell me if the measured self-cleavage kobs at 2500 uM GlcN6P of U56C A64G reaches 0.0001 s⁻¹ or more?
0.0

Kindly determine if self-cleavage kobs at 2500 uM GlcN6P recorded for G40A U46A is above or exactly 0.0001 s⁻¹.
1.0

Item G9A A14G A15U U55A with self-cleavage kobs at 2500 uM GlcN6P of 0.0001 s⁻¹ or above?
0.0

Could you please find out whether G7A C16G has self-cleavage kobs at 2500 uM GlcN6P that meets 0.0001 s⁻¹ or exceeds it?
0.0

Reported self-cleavage kobs at 2500 uM GlcN6P at or above 0.0001 s⁻¹? G29U C67U
1.0

Could you please find out whether G41U U47A has self-cleavage kobs at 2500 uM GlcN6P that meets 0.0001 s⁻¹ or exceeds it?
1.0

Please indicate if the recorded self-cleavage kobs at 2500 uM GlcN6P for U31C C58G meets or exceeds 0.0001 s⁻¹.
0.0

API: above_or_equal(metric=self-cleavage kobs at 2500 uM GlcN6P, cutoff=0.0001 s⁻¹) for item U31C G41A
0.0

The measured values listed here are drawn from the supplement of paper PMC7125110.
